# System: SR leukemia
# Protocol: NCI tumour cell line growth inhibition, 48 h
Property name: TGI

For orientation, consider the following solved cases.
CC/C(CC(=O)CCC(=O)Nc1c(C)cccc1C)=N\NC(=O)NN
> 100 µM
C/C(=N\N(C)C)C(CN1CCCCC1)C(c1ccccc1)c1c(O)c2ccccc2oc1=O (configuration not stated)
> 100 µM
C=C1C(=O)OC2C1CC[C@H](C)C1(O)C(O)CC(=O)[C@@]21C (some centres not stated)
47.9 µM
CNC(=O)CCC(NC(=O)OC(C)(C)C)C(=O)NC(Cc1ccc(NC(=O)CCCCC(C)=O)cc1)C(=O)NCC(=O)NC (configuration not stated)
> 100 µM
NC(N)=NS(=O)(=O)c1ccc(NC(=O)c2cccc3c(NNc4ccc(C(=O)O)cc4)c4ccccc4nc23)cc1
> 100 µM

The following molecules each have a reported value; give each one's TGI.
1. O=P(O)(OP(=O)(O)c1ccccc1)c1ccccc1 (tested in a mixture with another compound)
2. O=C1C[C@H](Sc2ccccc2)C2(OCCO2)[C@H]2ON3CCC[C@@H]3[C@@H]12

# output
1: > 100 µM; 2: 1.95 µM
